test system: PC‐9 (EGFRL858R); assay: Cell viability by MTT assay, PC-9; settings: Homo sapiens, 48 h, read-out: cytotoxic activity, PC-9 (EGFRL858R)
outcome.measure: IC50 (nM)
Give bare numbers, in nM.

Check out these entries, answers already filled in.
> print(dat)
                                   compound  quantity.unit  experimental.value
1  C=CC(=O)Nc1ccc2ncc(NC(=O)Nc3ccccc3)nc2c1             nM                 140
2  C=CC(=O)Nc1cc(Nc2nccc(-c3cn(C)c4ccccc34)n2)c(OC)cc1N(C)CCN(C)C [Osimertinib, osimertinib, reference compound]             nM                 170

// next item, IC50 requested
Task: Query: IC50; subject: `CN(C)C/C=C/C(=O)Nc1ccc2ncc(NC(=O)Nc3ccccc3)nc2c1`
Result: 1220

###

experiment: Microsomal metabolic stability; format: in vitro ADME, rat; conditions: rat, rat liver microsomes, RLM, NADPH regenerator system: Presence
Provide the reported half-life at 10 µM of each item.

> print(dat)
                               input.smiles     outcome.measure  experimental.value
1  CN(C)C/C=C/C(=O)Nc1ccc2ncc(NC(=O)Nc3ccccc3)nc2c1  half-life at 10 µM            5.91 min

// next item, half-life at 10 µM requested
Task: Query: half-life at 10 µM; subject: `C=CC(=O)Nc1ccc2ncc(NC(=O)Nc3ccccc3)nc2c1`
Result: 53.7 min

###

Provide the reported Papp of each item.
experiment: PAMPA‐GIT; assay type: in vitro ADME; settings: PAMPA-GIT, standard drugs used as control (n = 2); read-out: Pe experimental
Numbers only, in ×10⁻⁶ cm/s.

For each of the items listed, what is its Papp?
1. O=C(O)Cc1ccccc1Nc1c(Cl)cccc1Cl
2. CO/N=C(\C(=O)N[C@@H]1C(=O)N2C(C(=O)O)=C(CSc3nc(=O)c(=O)[nH]n3C)CS[C@H]12)c1csc(N)n1
3. CNC(=C[N+](=O)[O-])NCCSCc1ccc(CN(C)C)o1

Result:
[13.1, 0.67, 0.3]

###

test system: NCI‐H292 (EGFRwt); assay: Cell viability by MTT assay, NCI-H292; settings: read-out: cytotoxic activity CC50, NCI‐H292 (EGFRwt); MTT, 72 h
outcome.measure: CC50 (µM)
Give bare numbers, in µM.

Task: Query: CC50; subject: `C=CC(=O)Nc1ccc2ncc(NC(=O)Nc3ccccc3)nc2c1`
Result: 1.51

###

Provide the reported microsomal CLint at 10 µM of each item.
assay: Microsomal metabolic stability; type: in vitro ADME, rat; conditions: rat, rat liver microsomes, RLM, NADPH regenerator system: Absence
Numbers only, in µL/min/mg.

> print(dat)
                               input.smiles            outcome.measure  experimental.value
1  C=CC(=O)Nc1ccc2ncc(NC(=O)Nc3ccccc3)nc2c1  microsomal CLint at 10 µM               0.975

// next item, microsomal CLint at 10 µM requested
Task: Query: microsomal CLint at 10 µM; subject: `CN(C)C/C=C/C(=O)Nc1ccc2ncc(NC(=O)Nc3ccccc3)nc2c1`
Result: 0.4

###

Provide the reported Papp of each item.
experiment: PAMPA‐BBB; type: in vitro ADME; conditions: PAMPA‐BBB, mean ± standard deviation (n = 3); read-out: Pe. Exp. BBB
Answers are plain numbers, in ×10⁻⁶ cm/s.

> print(dat)
                               input.smiles  quantity.unit  experimental.value
1  CN(C)C/C=C/C(=O)Nc1ccc2ncc(NC(=O)Nc3ccccc3)nc2c1     ×10⁻⁶ cm/s                2.37

// next item, Papp requested
Task: Query: Papp; subject: `C=CC(=O)Nc1ccc2ncc(NC(=O)Nc3ccccc3)nc2c1`
Result: 4.16

###

assay: PAMPA‐GIT; format: in vitro ADME; details: PAMPA-GIT, standard drugs used as control (n = 2)
outcome.measure: Fa exp. (%)
Give bare numbers, in %.

Check out these entries, answers already filled in.
> print(dat)
                                   compound  outcome.measure  quantity.unit  experimental.value
1   CNC(=C[N+](=O)[O-])NCCSCc1ccc(CN(C)C)o1          Fa exp.              %               38.29
2              Nc1nc2c(ncn2COCCO)c(=O)[nH]1          Fa exp.              %                1.70
3  CC(C)NCC(O)COc1ccc(CC(N)=O)cc1 (centres unmarked)          Fa exp.              %                2.26
4            O=C(O)Cc1ccccc1Nc1c(Cl)cccc1Cl          Fa exp.              %               99.31

Task: Query: Fa exp.; subject: `CO/N=C(\C(=O)N[C@@H]1C(=O)N2C(C(=O)O)=C(CSc3nc(=O)c(=O)[nH]n3C)CS[C@H]12)c1csc(N)n1`
Result: 1.37

###

assay: PAMPA‐GIT; type: in vitro ADME; conditions: PAMPA‐GIT, mean ± standard deviation (n = 3); read-out: Pe. Exp. GIT
Provide the reported Papp of each item.
Give bare numbers, in ×10⁻⁶ cm/s.

> print(dat)
                                   compound  experimental.value
1  CN(C)C/C=C/C(=O)Nc1ccc2ncc(NC(=O)Nc3ccccc3)nc2c1 [LASSBio‐1974 (2)]                0.82

// next item, Papp requested
Task: Query: Papp; subject: C=CC(=O)Nc1ccc2ncc(NC(=O)Nc3ccccc3)nc2c1 [LASSBio‐1971 (1)]
Result: 7.69

###

Provide the reported half-life at 10 µM of each item.
assay: Microsomal metabolic stability; type: in vitro ADME, rat; settings: rat, rat liver microsomes, RLM, NADPH regenerator system: Absence

> print(dat)
                               input.smiles     outcome.measure  experimental.value
1  C=CC(=O)Nc1ccc2ncc(NC(=O)Nc3ccccc3)nc2c1  half-life at 10 µM              2.96 h

// next item, half-life at 10 µM requested
Task: Query: half-life at 10 µM; subject: `CN(C)C/C=C/C(=O)Nc1ccc2ncc(NC(=O)Nc3ccccc3)nc2c1`
Result: 7.22 h
